Target: type I phosphodiesterase
Experiment: Phosphodiesterase inhibition activity (in vitro), Type I
Assay endpoint: IC50 (nM)
Provide the reading as a plain figure in nM.

{"Compound": "CCCn1c(=O)cc(-c2cccc(Br)c2)c2c(C)cc(CC)nc21", "Unit text": "nM", "Reported measurement": 14.3}
{"Compound": "CCc1cc(C)c2c(-c3cccc(Br)c3)cc(=O)n(CC)c2n1", "Unit text": "nM", "Reported measurement": 4.3}
{"Compound": "CCc1cc(C)c2c(-c3ccccc3)cc(=O)n(C)c2n1", "Unit text": "nM", "Reported measurement": 23.4}
{"Compound": "CCn1c(=O)cc(-c2ccccc2)c2c(C)cc(C)nc21", "Unit text": "nM", "Reported measurement": 12.4}
{"Compound": "Cc1cc(C)c2c(-c3cccc(Cl)c3)cc(=O)n(C)c2n1", "Unit text": "nM", "Reported measurement": 41.9}

Please turn your attention to the following entry.
# IC50 of CCc1cc(C)c2c(C3CCCCC3)cc(=O)n(CC)c2n1 = 33.7

Where do these numbers come from? They come from patent US5817670A.
